# protocol.description: physchem
# Format: physicochemical
# measurement.parameters: buffer, pH 7.4
observed.property: half-life (h)
Hi! Could you send only the number? It should be in h, unit omitted.

Inquiry: Quick one: half-life for C[C@@H]1O[C@H](F)[C@@H](F)[C@H](O)[C@@H]1O [compound 2, 2-deoxy-2-fluoro-β-fucosyl fluoride] ?
Reply text: 6
